Test system: Saccharomyces cerevisiae BY4741 SeMeCo community
Assay: z-score of subpopulation abundance vs DMSO median, subpopulation auxotrophic for HLM; higher = larger share of this subpopulation than in DMSO controls
Conditions: 10 µM; 24 h; SM minimal medium; subpopulation (auxotrophy): HLM
Where a name gives a salt, the structure may show the parent alone.
QUANTITY NAME: z-score of subpopulation abundance
Give your answer as a number; write no unit.

## Input Which z-score of subpopulation abundance value is on record for C[C@@H]1C/C=C/C=C/C=C/C=C/[C@H](O[C@@H]2O[C@H](C)[C@@H](O)[C@H](N)[C@@H]2O)C[C@@H]2O[C@](O)(C[C@@H](O)C[C@H]3O[C@@H]3/C=C/C(=O)O1)C[C@H](O)[C@H]2C(=O)O ?
## Output 38.1

## Input Could you do the same for COc1c(N2C[C@@H]3CCCN[C@@H]3C2)c(F)cc2c(=O)c(C(=O)O)cn(C3CC3)c12 [Moxifloxacin HCl] , please?
## Output 0.72

## Input Could you do the same for COc1cccc2c1C(=O)c1c(O)c3c(c(O)c1C2=O)C[C@@](O)(C(=O)CO)C[C@@H]3O[C@H]1C[C@H](N)[C@@H](O)[C@H](C)O1 [Epirubicin HCl] , please?
## Output 0.2

## Input Could you do the same for CCC[C@@H]1C[C@@H](C(=O)N[C@@H]([C@H]2O[C@H](SC)[C@H](O)[C@@H](O)[C@H]2O)[C@@H](C)O)N(C)C1 [Lincomycin HCl] , please?
## Output -0.77

## Input Could you do the same for CN(C)CCn1nnnc1SCC1=C(C(=O)O)N2C(=O)[C@@H](NC(=O)Cc3csc(N)n3)[C@H]2SC1 [Cefotiam hydrochloride] , please?
## Output 0.75

## Input Could you do the same for COCC(=O)Nc1cc(Sc2ccccc2)ccc1N=C(NC(=O)OC)NC(=O)OC , please?
## Output 0.64

## Input Could you do the same for O=C1C(N(CO)C(=O)NCO)N(CO)C(=O)N1CO (centres undefined) , please?
## Output -0.27

## Input Could you do the same for CCOc1cc(N)c(Cl)cc1C(=O)NCC1CN(Cc2ccc(F)cc2)CCO1 (centres undefined) [Mosapride Citrate] , please?
## Output 0.62

## Input Could you do the same for CCS(=O)(=O)CCn1c([N+](=O)[O-])cnc1C , please?
## Output -1.15

## Input Could you do the same for O=C(Cn1cnnn1)N[C@@H]1C(=O)N2C(C(=O)O)=C(CSc3nncs3)CS[C@H]12 [Ceftezole] , please?
## Output -0.2

## Input Could you do the same for OB1OCc2cc(F)ccc21 , please?
## Output 98

## Input Could you do the same for CCN1CCCC1CNC(=O)c1cc(S(N)(=O)=O)ccc1OC (centres undefined) [Sulpiride] , please?
## Output 0.14

## Input Could you do the same for COc1cc2c(cc1OC)C(=O)C(CC1CCN(Cc3ccccc3)CC1)C2 (centres undefined) [Donepezil HCl] , please?
## Output 0.49

## Input Could you do the same for OCCOCCN1CCN(C2=Nc3ccccc3Sc3ccccc32)CC1 [Quetiapine Fumarate] , please?
## Output 0.55
